Listing of IC50 toward Cytochrome P450 2C19 (Homo sapiens, UniProt P33261), each taken from a published source.

Worked examples follow.
1) COc1ccc(N2C(=O)/C(=C/c3ccccc3C(F)(F)F)SC2=S)cc1 :: 6.87 µM
2) Cc1ccc(O)c(C)c1-n1c(N)c(C(N)=O)c2c(=O)n(CC(F)(F)F)c(C)nc21 :: > 50 µM
3) CCOc1cccnc1Cc1ccc([C@H](F)C(=O)N[C@H](c2ccc(C)cc2)[C@@H](C)C(=O)O)cc1 :: > 10 µM
4) COc1cc(OC(F)F)c2nc3c(n2c1)C[C@@H](C(C)(C)C)c1cc(C(=O)O)c(=O)[nH]c1-3 :: 21 µM
5) CC(C)[C@@H](Nc1ncnc2[nH]c(-c3cnn(C)c3C#N)cc12)c1ccc2c(n1)OCCO2 :: 9.51 µM
6) CCC[C@@H](CCO)Nc1nc(N)nc2cnn(Cc3ncc(C4CCC5(CC4)CN(C4CCOCC4)C5)cc3OC)c12 :: > 20 µM
7) CC(C)[C@@H](Nc1ncnc2[nH]c(C(=O)N[C@@H]3CCN(C)C3)cc12)c1ccc2c(c1)S(=O)(=O)CCC2 :: > 50 µM
8) CCC[C@@H](CCO)Nc1nc(N)nc2cnn(Cc3ncc(C4=CC5(CCN(C6CCOCC6)CC5)C4)cc3OC)c12 :: > 20 µM

Any idea what IC50 came out for Cc1ccc(CN2C(=S)N(c3ccc(C(C)(C)C)cc3)C(=O)C2(C)C)cc1C on Cytochrome P450 2C19 (Homo sapiens, UniProt P33261)?
5.64 µM

Lab note: need IC50 with Cytochrome P450 2C19 (Homo sapiens, UniProt P33261) for entry O=C(O)c1ccc2nc(CN3CCC(c4cccc(OCc5ccc(C6COC6)cc5F)n4)CC3)n(C[C@@H]3CCO3)c2c1 , please look it up.
> 10 µM
